Each item that follows carries a reported protein stability index.
B1: PSD2 (parent)
chain: LTHFSRRYCQCNPDDSTSEDGIHT

- Variants of: B1
- test_summary: protein stability index of a GFP-peptide fusion (GPS, HEK-293T) (PSI 1-6); higher = more stable;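 further: lentivirally expressed fusions sorted by FACS into six bins by GFP to DsRed ratio, PSI derived from sequencing read proportions per bin multiplied by bin number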
- conditions: c terminus: a fixed tail appended
readout_type: protein stability index

| variant_label | numeric_result |
| --- | --- |
| G21D | 3.73 |
| Y8W | 2.36 |
| N12L | 2.96 |
| D15Y | 3.23 |
| H23K | 2.92 |
| D15F | 3.21 |
| E19W | 1.87 |
| L1N | 3.75 |
| D15W | 2.14 |
| T24R | 2.27 |
| R6A | 4.22 |
| S16R | 2.61 |
| L1M | 3.16 |
| R7K | 3.53 |
| R7F | 3.26 |
| C11T | 4.31 |
| H23F | 2.01 |
| G21W | 1.96 |
| E19G | 3.03 |
| Q10A | 3.72 |
| G21Q | 3.25 |
| R6N | 4.12 |
